Molecular target: T1, recombinant mouse soluble gpNMB (recombinant mouse gpNMB-FLAG-His) (mouse, UniProt Q99P91 23-502)
T1 sequence: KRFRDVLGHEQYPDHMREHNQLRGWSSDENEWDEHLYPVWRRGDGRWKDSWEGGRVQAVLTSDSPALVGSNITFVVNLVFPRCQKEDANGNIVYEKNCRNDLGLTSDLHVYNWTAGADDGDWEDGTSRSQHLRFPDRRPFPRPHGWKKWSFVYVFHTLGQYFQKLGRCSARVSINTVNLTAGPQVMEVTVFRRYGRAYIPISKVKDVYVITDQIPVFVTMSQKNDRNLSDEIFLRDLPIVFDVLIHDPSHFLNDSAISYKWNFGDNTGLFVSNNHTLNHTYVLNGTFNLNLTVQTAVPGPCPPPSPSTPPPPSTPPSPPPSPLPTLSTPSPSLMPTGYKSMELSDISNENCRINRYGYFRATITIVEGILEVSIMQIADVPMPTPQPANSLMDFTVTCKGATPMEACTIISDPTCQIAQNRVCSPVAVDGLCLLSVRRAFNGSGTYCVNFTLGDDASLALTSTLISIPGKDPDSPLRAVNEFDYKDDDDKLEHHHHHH
Test: SPR single-cycle kinetics, antibody over captured gpNMB-FLAG-His, 36C, mean of 2
READOUT_LABEL: Kd (nM)
Number only, in nM; omit the unit.

// known answers, use as guide
hGPN18-5_H3L1 (antibody, V domains shown, humanized; also called hGPN18-5 VH3+VL1) VH: QVQLVQSGAEVKKPGASVKVSCKASGYTFTTYWMNWVRQAPGQGLEWIGAINPSNDYTEYNQKFKDRAIMTADKSTSTVYMELSSLRSEDTAVYYCGRSYSPDYWGQGTTVTVSS VL: DIQMTQSPSSLSASVGDRVTITCKASQNVDNHVAWFQQKPGKAPKALIYSASYRYSGVPSRFSGSGSGTDFTLTISSLQPEDFATYFCQQYKSYPFTFGGGTKLEIK
17.8
hGPN18-5_H3L3 (antibody, V domains shown, humanized; also called hGPN18-5_VH3+VL3) VH: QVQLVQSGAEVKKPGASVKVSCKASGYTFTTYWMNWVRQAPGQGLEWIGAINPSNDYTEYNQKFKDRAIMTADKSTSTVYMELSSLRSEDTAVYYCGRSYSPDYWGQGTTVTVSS VL: DIQMTQSPSSLSASVGDRVTITCKASQNVDNHVAWHQQKPGKAPKALIYSASYRYSGVPDRFTGSGSGTDFTLTISSLQPEDFADYFCQQYKSYPFTFGGGTKLEIK
6.39
hGPN18-5_H0L0 (antibody, V domains shown, chimeric antibody with mouse GPN18-5 variable regions (VH0, VL0); also called hGPN18-5_VH0+VL0; HGPN18-5_VH0+VL0) VH: QVQLQQSGAELAKPGTSVKMSCKASGYTFTTYWMNWVKQRPGQDLEWIGAINPSNDYTEYNQKFKDKAILTADKSSNTAYMQLSSLTSEDSAVYYCGRSYSPDYWGQGTTLTVSS VL: DIVMTQSQKFMSTSVGDRVSVTCKASQNVDNHVAWHQQKPGQSPKALIYSASYRYSGVPDRFTGSGSGTDFTLTIRDVQSEDLADYFCQQYKSYPFTFGSGTELEIK
5.31

Please look at the following binder next.
Give me measured Kd, please, for this binder: hGPN18-5_H1L1 (antibody, V domains shown, humanized; also called hGPN18-5_VH1+VL1) VH: QVQLVQSGAEVKKPGASVKVSCKASGYTFTTYWMNWVRQAPGQGLEWIGAINPSNDYTEYNQKFKDRVTMTADTSTSTVYMELSSLRSEDTAVYYCGRSYSPDYWGQGTTVTVSS VL: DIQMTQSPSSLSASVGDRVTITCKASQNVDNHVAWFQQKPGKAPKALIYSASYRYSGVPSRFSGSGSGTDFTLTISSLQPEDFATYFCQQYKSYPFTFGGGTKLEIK 21.9
